For each entry below, report its pEC50 value.
biological target: human CB2R (Homo sapiens, UniProt P34972); construct: host or cells: CHO cells; test: CB2R mediated modulation of cAMP synthesis; assay type: cell-based; settings: CHO cells expressing human CB2R; inhibition of forskolin-stimulated cAMP synthesis; read-out: CB2 EC50
Sequence (P34972 whole entry): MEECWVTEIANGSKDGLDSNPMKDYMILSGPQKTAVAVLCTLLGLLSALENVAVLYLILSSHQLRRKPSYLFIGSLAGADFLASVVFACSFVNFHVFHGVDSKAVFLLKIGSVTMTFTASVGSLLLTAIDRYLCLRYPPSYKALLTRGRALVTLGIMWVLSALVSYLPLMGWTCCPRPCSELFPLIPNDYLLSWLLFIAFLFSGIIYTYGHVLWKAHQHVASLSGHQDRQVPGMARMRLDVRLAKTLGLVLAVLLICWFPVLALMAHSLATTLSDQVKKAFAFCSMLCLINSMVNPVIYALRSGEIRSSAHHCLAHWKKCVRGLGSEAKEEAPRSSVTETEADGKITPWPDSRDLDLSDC
FYI, pEC50 means -log10 of a concentration in mol per litre.

Send back human CB2R (Homo sapiens, UniProt P34972) pEC50 of "Cc1cc(-c2n[nH]c(NC(=O)C(C)(C)S(=O)(=O)C3CCOCC3)n2)no1" only.
6.57

Send back human CB2R (Homo sapiens, UniProt P34972) pEC50 of "Cc1cc(-c2nnc(NC(=O)C(C)(C)S(=O)(=O)CCC3CCOCC3)[nH]2)on1" only.
6.85

Send back human CB2R (Homo sapiens, UniProt P34972) pEC50 of "Cc1nnc(C(C)(C)c2cc(NC(=O)C(C)(C)S(=O)(=O)C3CCN(S(C)(=O)=O)CC3)on2)o1" only.
6.79

Send back human CB2R (Homo sapiens, UniProt P34972) pEC50 of "Cc1cc(-c2nnc(NC(=O)C(C)(C)S(=O)(=O)CCC(C)C)[nH]2)on1" only.
6.85

Send back human CB2R (Homo sapiens, UniProt P34972) pEC50 of "CC(C)CCS(=O)(=O)C(C)(C)C(=O)Nc1nnc(-c2ncco2)[nH]1" only.
6.76

Send back human CB2R (Homo sapiens, UniProt P34972) pEC50 of "Cc1cc(-c2nnc(NC(=O)C(C)(C)S(=O)(=O)CCCC(F)(F)F)[nH]2)no1" only.
6.57

Send back human CB2R (Homo sapiens, UniProt P34972) pEC50 of "CC(C)(C(=O)Nc1nnc(-c2nccs2)[nH]1)S(=O)(=O)C1CCOCC1" only.
6.52

Send back human CB2R (Homo sapiens, UniProt P34972) pEC50 of "Cc1cc(-c2n[nH]c(NC(=O)C(C)(C)S(=O)(=O)C3CCOCC3)n2)n(C)n1" only.
6.31
